All figures here come from patent US11498923B2.

Reported pKi values follow for various compounds
Target: human A2a receptor (Homo sapiens)
Construct: purchased Perkin-Elmer RBHA2AM400UA; host or cells: HEK293 cells, used as a membrane preparation
Sequence (P29274 whole entry): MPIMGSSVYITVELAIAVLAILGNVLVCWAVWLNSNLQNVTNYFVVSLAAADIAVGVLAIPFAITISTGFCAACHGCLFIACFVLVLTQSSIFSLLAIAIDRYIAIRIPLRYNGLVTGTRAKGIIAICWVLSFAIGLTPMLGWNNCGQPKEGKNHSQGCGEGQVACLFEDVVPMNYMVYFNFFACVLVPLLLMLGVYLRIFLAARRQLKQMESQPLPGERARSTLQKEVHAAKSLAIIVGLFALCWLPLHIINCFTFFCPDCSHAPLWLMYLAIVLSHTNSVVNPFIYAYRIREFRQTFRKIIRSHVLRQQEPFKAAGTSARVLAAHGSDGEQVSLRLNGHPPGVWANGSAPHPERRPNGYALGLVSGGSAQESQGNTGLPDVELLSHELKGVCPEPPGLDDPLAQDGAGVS
Test: A2a receptor competition binding assay (Scintillation Proximity)
Settings: membranes from HEK293 cells expressing human A2a receptor; 0.5 nM tritiated ligand; Cheng-Prusoff; read-out: A2a Ki
pKi: −log10 of the molar value.
MEASURED QUANTITY: pKi

{"COMPOUND": "Nc1nc2c(F)cccc2c2nc(Cc3ccc(C(=O)NCC(c4cccnc4)N4CCOCC4)cc3)cn12 (stereo not drawn)", "MEASURED TARGET": "human A2a receptor (Homo sapiens)", "TEST VALUE": 7.08}
{"COMPOUND": "COc1cccc2c1nc(N)n1cc(C(=O)N3C[C@@H](F)[C@H](F)C3)nc21", "MEASURED TARGET": "human A2a receptor (Homo sapiens)", "TEST VALUE": 7.68}
{"COMPOUND": "COc1cccc2c1nc(N)n1cc(C(=O)N3CCCCC34CC4)nc21", "MEASURED TARGET": "human A2a receptor (Homo sapiens)", "TEST VALUE": 8.25}
{"COMPOUND": "Nc1nc2c(F)cccc2c2nc(CN3CCC(Cc4ccccc4)CC3)cn12", "MEASURED TARGET": "human A2a receptor (Homo sapiens)", "TEST VALUE": 6.89}
{"COMPOUND": "Nc1nc2c(F)cccc2c2nc(CN3CCOc4ccccc43)cn12", "MEASURED TARGET": "human A2a receptor (Homo sapiens)", "TEST VALUE": 8.40}
{"COMPOUND": "Nc1nc2c(F)cccc2c2nc(C(=O)NC3CCNc4ccccc43)cn12 (stereo not drawn)", "MEASURED TARGET": "human A2a receptor (Homo sapiens)", "TEST VALUE": 8.05}
{"COMPOUND": "Nc1nc2c(F)cccc2c2nc(CNCc3ccc(F)cc3)cn12", "MEASURED TARGET": "human A2a receptor (Homo sapiens)", "TEST VALUE": 6.89}
{"COMPOUND": "CCN1CCC(Cc2cn3c(N)nc4c(F)cccc4c3n2)CC1", "MEASURED TARGET": "human A2a receptor (Homo sapiens)", "TEST VALUE": 6.92}
{"COMPOUND": "CN(Cc1cccc2cccnc12)C(=O)c1cn2c(N)nc3ccccc3c2n1", "MEASURED TARGET": "human A2a receptor (Homo sapiens)", "TEST VALUE": 7.09}
